Hi there, I'd appreciate the recorded melting point for every entry that follows.
Counter-ions that a name gives are not always drawn.

Inquiry: Consider the molecule NC(=O)c1ccc(F)c2c1OCC(NCCCCc1c[nH]c3ccc(F)cc13)C2 (stereo not shown) (as salt: hydrochloride) [Compound 123] and give its recorded melting point.
Reply text: 119 °C (dec.)

Inquiry: Report melting point, nothing else, for this molecule: COc1cccc2c(CCCN(CC3CC3)C3COc4c(F)ccc(C(N)=O)c4C3)coc12 (stereo not shown) (as salt: hydrochloride) [Compound 165]
Reply text: 125 to 132 °C

Inquiry: Supply melting point value. Item: NC(=O)c1ccc(F)c2c1CC(N(CCCc1c[nH]c3c(Cl)cccc13)C1CCC1)CO2 (stereo not shown) (as salt: hydrochloride) [Compound 111]
Reply text: 154 to 163 °C (dec.)

Inquiry: Give a short answer stating reported melting point for COc1cccc2c1CC(N(CCCc1c[nH]c3ccc(C#N)cc13)CC1CC1)CO2 (stereo not shown) (as salt: hydrochloride) [Compound 45] .
Reply text: 123 to 127 °C (dec.)

Inquiry: Specify reported melting point for the molecule shown: CC(CCc1c[nH]c2ccc(F)cc12)N(CC1CC1)C1COc2c(F)ccc(C(N)=O)c2C1 (single isomer, unassigned; (-)) (as salt: hydrochloride) [Compound 15a]
Reply text: 135 °C (dec.)

Inquiry: Note melting point for the molecule shown: CCCN(CCCc1c[nH]c2ccc(F)cc12)C1COc2c(F)ccc(C(N)=O)c2C1 (single isomer, unassigned; (-)) (as salt: hydrochloride) [Compound 2a]
Reply text: 126 °C (dec.)

Inquiry: For the molecule NC(=O)c1ccc(F)c2c1CC(NCCCc1c[nH]c3c(Cl)cccc13)CO2 (stereo not shown) (as salt: hydrochloride) [Compound 109] , report melting point.
Reply text: 222 to 224 °C

Inquiry: Give a short answer stating reported melting point for NC(=O)c1ccc(F)c2c1CC(NCCCc1c[nH]c3ccc(F)cc13)CO2 (single isomer, unassigned; (-)) (as salt: hydrochloride) [Compound 1b] .
Reply text: 87 °C (dec.)

Inquiry: Hello, please tell me recorded melting point for this one: CCN(CCc1c[nH]c2ccc(F)cc12)C1CCc2cccc(OC)c2C1 (stereo not shown) (as salt: hydrochloride) [Compound 49]
Reply text: 114 °C (dec.)

Inquiry: Entry NC(=O)c1cccc2c1CC(N(CCCc1c[nH]c3ccc(F)cc13)C1CCC1)CO2 (stereo not shown) [Compound 134] needs its melting point filled in; supply it.
Reply text: 102 to 105 °C

Inquiry: Provide only the value of recorded melting point for O=C(O)c1cccc2c1CC(N(CCCc1c[nH]c3c(F)cc(F)cc13)C1CCC1)CO2 (stereo not shown) [Compound 137]
Reply text: 130 to 131 °C

Inquiry: Give the reported value of melting point for this record: CCCN(CCCc1coc2c(OC)cccc12)C1COc2c(F)ccc(C(N)=O)c2C1 (stereo not shown) (as salt: hydrochloride) [Compound 163]
Reply text: 123 to 129 °C

Inquiry: Identify measured melting point corresponding to COC(=O)c1ccc(F)c2c1CC(N(CCCCc1c[nH]c3ccc(F)cc13)C1CCC1)CO2 (stereo not shown) (as salt: hydrochloride) [Compound 58]
Reply text: 115 °C (dec.)

---

# targetSystem: serotonin transporter (Rattus norvegicus)
# Construct: displace ^3H-paroxetine from male rat cortical membranes; from tissue; host or cells: male rat cortical membranes
# Sequence (P31652 whole entry): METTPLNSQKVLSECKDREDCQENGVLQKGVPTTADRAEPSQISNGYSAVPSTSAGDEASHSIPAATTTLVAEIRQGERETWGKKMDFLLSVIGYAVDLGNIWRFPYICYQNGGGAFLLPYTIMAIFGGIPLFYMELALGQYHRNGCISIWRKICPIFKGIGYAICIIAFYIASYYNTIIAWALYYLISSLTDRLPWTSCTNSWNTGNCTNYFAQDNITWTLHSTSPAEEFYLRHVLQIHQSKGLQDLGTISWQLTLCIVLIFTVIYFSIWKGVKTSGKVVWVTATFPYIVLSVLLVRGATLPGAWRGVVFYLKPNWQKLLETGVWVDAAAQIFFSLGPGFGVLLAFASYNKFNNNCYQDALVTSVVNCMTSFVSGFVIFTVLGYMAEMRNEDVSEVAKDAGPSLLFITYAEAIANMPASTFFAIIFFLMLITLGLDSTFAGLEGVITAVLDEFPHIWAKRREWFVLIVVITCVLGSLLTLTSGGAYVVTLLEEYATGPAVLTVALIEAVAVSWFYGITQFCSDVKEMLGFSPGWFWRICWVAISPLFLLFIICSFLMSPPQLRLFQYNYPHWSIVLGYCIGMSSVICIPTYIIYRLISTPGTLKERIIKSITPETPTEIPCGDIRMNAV
# protocolSummary: 5-HT transporter affinity: displacement of 3H-paroxetine from male rat cortical membranes
# Assay type: binding
# particulars: displacement of 3H-paroxetine; male rat cortical membranes; read-out: 5-HT Transporter Affinity Ki
measurementKind: Ki (nM)
Expressed in nM, but write only the number.

Inquiry: Read the entry CCNC(=O)c1cccc2c1CC(N(CCCc1c[nH]c3c(F)cc(F)cc13)C1CCC1)CO2 (centres unmarked) [Compound 139] and write its reported Ki.
Reply text: 3.9

Inquiry: Consider the compound CC(C)NC(=O)c1cccc2c1CC(N(CCCc1c[nH]c3c(F)cc(F)cc13)C1CCC1)CO2 (centres unmarked) [Compound 141] . State its measured Ki.
Reply text: 3.52

Inquiry: Provide one value: measured Ki of COc1cccc2c1CC(N(CCCc1c[nH]c3ccc(F)cc13)CC1CCC1)CO2 (centres unmarked) [Compound 42]
Reply text: 54

Inquiry: Provide Ki value for the following compound: CCCN(CCC(O)c1csc2ccc(F)cc12)C1COc2c(F)ccc(C(N)=O)c2C1 (centres unmarked) [Compound 17]
Reply text: 159

Inquiry: Return the recorded Ki value; entry: COc1cccc2c1CC(N(CCCc1c[nH]c3ccc(F)cc13)C(C)C)CO2 (centres unmarked) [Compound 40]
Reply text: 3.8

Inquiry: Please list Ki recorded for the compound COc1cccc2c1CC(N[C@H]1CC[C@H](c3c[nH]c4ccc(F)cc43)CC1)CO2 (relative stereo) [Compound 181b]
Reply text: 3.07

Inquiry: Give the reported value of Ki for this record: CNC(=O)c1ccc(F)c2c1CC(NCCc1c[nH]c3ccc(F)cc13)CO2 (centres unmarked) [Compound 84]
Reply text: 83

Inquiry: Could you please provide reported Ki for NC(=O)c1ccc(F)c2c1CC(N(CCCCn1ccc3cccc(F)c31)C1CCC1)CO2 (centres unmarked) [Compound 192] ? Thanks!
Reply text: 39.3

Inquiry: Please list Ki recorded for the compound CCCN(CCCc1c[nH]c2c(Cl)cccc12)C1COc2c(F)ccc(C(N)=O)c2C1 (centres unmarked) [Compound 113]
Reply text: 51

Inquiry: Please supply the value of reported Ki for the item NC(=O)c1ccc(F)c2c1CC(N(CC1CCc3[nH]c4ccc(F)cc4c3C1)C1CCC1)CO2 (single isomer, unassigned; (+)) [Compound 174b]
Reply text: 192

Inquiry: Supply reported Ki belonging to this compound: CC(Cc1c[nH]c2ccc(F)cc12)CN(CC1CC1)[C@H]1COc2c(F)ccc(C(N)=O)c2C1 (single isomer, unassigned) [Compound 155a]
Reply text: 48.8

Inquiry: Fill in reported Ki for this entry: CC(CCc1c[nH]c2ccc(F)cc12)N(CC1CC1)C1COc2c(F)ccc(C(N)=O)c2C1 (single isomer, unassigned; (-)) [Compound 15a]
Reply text: 10.2

Inquiry: Give the reported Ki for this compound. O=C(NC1CC1)c1cccc2c1CC(N(CCCc1c[nH]c3c(F)cc(F)cc13)C1CCC1)CO2 (centres unmarked) [Compound 142]
Reply text: 3.88

Inquiry: Look up and report measured Ki for this entry: CCN(CCCCc1coc2ccccc12)C1COc2cccc(OC)c2C1 (centres unmarked) [Compound 22]
Reply text: 35.7

Inquiry: Return value of Ki for input NC(=O)c1ccc(F)c2c1CC(N(CCCc1c[nH]c3c(Cl)cccc13)C1CCC1)CO2 (centres unmarked) [Compound 111] , no commentary.
Reply text: 66

Inquiry: Tell us which Ki value is on record for NC(=O)c1ccc(F)c2c1CC(NCCCc1c[nH]c3ccc(F)cc13)CO2 (single isomer, unassigned; (+)) [Compound 1a]
Reply text: 26.2

Inquiry: Query Ki for CCN(CCCc1c[nH]c2ccc(F)cc12)C1COc2cccc(C(N)=O)c2C1 (centres unmarked) [Compound 149]
Reply text: 9.25

Inquiry: Supply reported Ki belonging to this compound: COc1cccc2c1CC(N(CCCc1c[nH]c3ccc(F)cc13)C1CC1)CO2 (centres unmarked) [Compound 41]
Reply text: 148

Inquiry: Return Ki for the following compound: C[C@@H](CCN(C1CCC1)[C@@H]1COc2c(F)ccc(C(N)=O)c2C1)c1c[nH]c2ccc(F)cc12 [Compound 153b]
Reply text: 122

Inquiry: Supply Ki value. Item: COc1cccc2c1CC(N(CCCc1c[nH]c3ccc(F)cc13)C1CCC1)CO2 (centres unmarked) [Compound 34]
Reply text: 13

Inquiry: Annotate the compound CC(CCc1c[nH]c2c(F)cc(F)cc12)N(CC1CC1)C1COc2c(F)ccc(C(N)=O)c2C1 (single isomer, unassigned) [Compound 154a] with its measured Ki.
Reply text: 65

Inquiry: Quick one: give measured Ki for N#Cc1ccc2[nH]cc(CCCN(CC3CC3)[C@@H]3COc4c(F)ccc(C(N)=O)c4C3)c2c1 [Compound 98a]
Reply text: 3.2

Inquiry: Report Ki for CNC(=O)c1cccc2c1CC(N(CCCc1c[nH]c3c(F)cc(F)cc13)C1CCC1)CO2 (centres unmarked) [Compound 138]
Reply text: 3.34

Inquiry: Quick one: give measured Ki for COc1cccc2c(CCCCN(CC3CC3)C3COc4c(F)ccc(C(N)=O)c4C3)coc12 (centres unmarked) [Compound 170]
Reply text: 457

Inquiry: Please list Ki recorded for the compound CCCN(C(C)CCc1c[nH]c2ccc(F)cc12)C1COc2c(F)ccc(C(N)=O)c2C1 (single isomer, unassigned) [Compound 12d]
Reply text: 152

Inquiry: Assign Ki to the following record: NC(=O)c1ccc(F)c2c1C[C@@H](N(CC1CC1)CC1CCc3[nH]c4ccc(F)cc4c3C1)CO2 (single isomer, unassigned; (+)) [Compound 178b]
Reply text: 116

Inquiry: Please give the documented Ki of CNC(=O)c1ccc(F)c2c1CC(N(CCCCc1c[nH]c3ccc(F)cc13)CC1CC1)CO2 (centres unmarked) [Compound 94]
Reply text: 1.27

Inquiry: Name the recorded Ki of the compound listed here: CNC(=O)c1ccc(F)c2c1CC(N(CCc1c[nH]c3ccc(F)cc13)C1CCC1)CO2 (centres unmarked) [Compound 87]
Reply text: 26.5

Inquiry: Look up and state reported Ki for NC(=O)c1ccc(F)c2c1CC(N(CCC(=O)c1c[nH]c3ccc(F)cc13)C1CCC1)CO2 (centres unmarked) [Compound 8]
Reply text: 259

These entries and their values trace back to patent US20050032873A1.
